# System: Plasmodium falciparum
# assay.remarks: GSK_TCMDC: Inhibition of Plasmodium falciparum Dd2 in whole red blood cells, using parasite LDH activity as an index of growth. Test compounds present at 2uM
# Format: functional
Inhibition strictly less than 40% = MET. Otherwise NOT MET.

COCC(=O)N(Cc1ccccc1-c1cccc(CNCc2ccc3c(c2)OCO3)c1)C1CCN(Cc2ccccc2)CC1.O=C(O)C(F)(F)F = NOT MET

Input line: Decide: Inhibition of `COc1c(C=NNc2nc(=Nc3ccccc3)[nH]c(=Nc3ccccc3)[nH]2)ccc(Br)c1O` strictly below 40%?
Output line: MET

Input line: Decide: Inhibition of `O=C(O)C(F)(F)F.c1cc(CNCCc2ccncc2)cc(-c2csc(-c3nc4ccccc4[nH]3)c2)c1` strictly below 40%?
Output line: NOT MET

Input line: Decide: Inhibition of `N#Cc1ccc(-c2ccc(C(=O)NC3CCN(CCN4CCc5c(cccc5C(F)(F)F)C4)CC3)cc2)cc1` strictly below 40%?
Output line: NOT MET

Input line: Decide: Inhibition of `CN(C)CCN(C)C(=O)c1cc(-c2ccncc2)c(-c2ccc(Cl)c(O)c2)o1.Cl` strictly below 40%?
Output line: MET

Input line: Decide: Inhibition of `O=C(/C=C/c1ccc(Cl)c(Cl)c1)NCCCCCN1CCCN(C(=O)Nc2ccc(F)c(F)c2)CC1` strictly below 40%?
Output line: MET

Input line: Decide: Inhibition of `Cc1cc(-c2ccc(Cl)cc2)c2c(N)c(C(=O)Nc3ccc(F)cc3)sc2n1` strictly below 40%?
Output line: NOT MET

Input line: Decide: Inhibition of Cc1cc(N(C)C2CCN(CC3CCCCC3)C2)nc(Nc2ccc(Br)cc2)n1 (centres undefined) strictly below 40%?
Output line: MET

Input line: Decide: Inhibition of `CN(C)CCCNc1c2ccccc2nc2ccccc12` strictly below 40%?
Output line: MET

----------
# Test system: Plasmodium falciparum
# assay.remarks: GSK_TCMDC: Inhibition of Plasmodium falciparum Dd2 in whole red blood cells, using parasite LDH activity as an index of growth. Test compounds present at 2uM
# Type: functional
Please note: Met applies when Inhibition is 70% or greater, and Not met applies otherwise.

Example entries begin here.
Cl.N#Cc1cccc(NC(=O)Nc2ccc3c(c2)CCN(C2CCC2)CC3)c1 = Not met
Fc1ccc2[nH]c(-c3cccc(-c4ccc(CN5CCN(c6ccncc6)CC5)cc4)c3)nc2c1.O=C(O)C(F)(F)F = Not met
Cl.O=C(NC1CCC(CCN2Cc3ccc(Br)cc3C2)CC1)c1cccc(-c2cccnc2)c1 (stereo not drawn) = Met

Input line: Is reported Inhibition greater than or equal to 70% here: `Cc1cc(C(=O)NC2CCN(CC3(c4ccccc4)CCCCC3)CC2)on1`
Output line: Met

Input line: Is reported Inhibition greater than or equal to 70% here: `CC(C)CNCc1ccc(-c2cccc(CNc3ccc4ncccc4c3)c2)cc1.O=C(O)C(F)(F)F`
Output line: Not met

Input line: Is reported Inhibition greater than or equal to 70% here: `CC(C)C[C@@H](C(=O)Nc1ccc(Cc2ccc(NC(=O)[C@H](CC(C)C)N(C)C(=O)OC(C)(C)C)cc2)cc1)N(C)C(=O)OC(C)(C)C`
Output line: Not met

Input line: Is reported Inhibition greater than or equal to 70% here: COc1cc2nc(NCCc3ccccc3)nc(NC(C)c3ccccc3)c2cc1OC (stereo not drawn)
Output line: Met

Input line: Is reported Inhibition greater than or equal to 70% here: `COc1cc(Cc2cnc(N)nc2N)cc(OCCn2ccccc2=O)c1OC`
Output line: Not met

Input line: Is reported Inhibition greater than or equal to 70% here: `Cc1cccc2nc(-c3cccc(-c4cccc(NC(=O)Nc5ccc(Cl)c(Cl)c5)c4)c3)[nH]c12`
Output line: Met

Input line: Is reported Inhibition greater than or equal to 70% here: Cc1ccccc1C1CCN(C2CCC(NC(=O)C3=Cc4ccccc4OC3)CC2)CC1 (stereo not drawn)
Output line: Not met
